Tested on: H460 cell lines
Experiment: In vitro cytotoxicity (AlamarBlue) with or without ABT-888, H460
Assay type: cell-based
Conditions: Homo sapiens, NCI-H460; H460; normoxia; 3 days co-treatment after 1 h ABT-888 pretreatment; read-out: IC50 (μM); Normoxia
Endpoint Label: IC50 (µM)
Reply with just the number (in µM).

Query: Entry Cn1nnc2c(C(N)=O)ncn2c1=O [Temozolomide, temozolomide, reference compound] : reported IC50 = ?
Response: 540
